Reported Ki is given for each of the following compounds.
# tested-on: Synaptic vesicular amine transporter (Bos taurus)
# Sequence (Q27963 whole entry): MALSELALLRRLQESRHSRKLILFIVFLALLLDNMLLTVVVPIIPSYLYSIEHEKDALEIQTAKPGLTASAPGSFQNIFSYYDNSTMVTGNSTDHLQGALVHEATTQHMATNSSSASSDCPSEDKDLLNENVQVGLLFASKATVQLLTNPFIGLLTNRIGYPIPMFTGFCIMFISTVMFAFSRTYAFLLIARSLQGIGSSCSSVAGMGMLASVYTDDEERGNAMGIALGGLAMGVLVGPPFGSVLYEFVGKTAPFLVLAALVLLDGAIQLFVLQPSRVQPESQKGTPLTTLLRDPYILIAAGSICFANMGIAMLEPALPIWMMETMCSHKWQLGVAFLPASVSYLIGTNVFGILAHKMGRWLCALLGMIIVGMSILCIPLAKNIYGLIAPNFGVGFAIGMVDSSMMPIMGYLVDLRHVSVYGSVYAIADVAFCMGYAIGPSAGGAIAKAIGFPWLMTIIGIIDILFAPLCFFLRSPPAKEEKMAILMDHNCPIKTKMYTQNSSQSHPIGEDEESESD
# assay: Inhibition of dopamine uptake at VMAT in bovine chromaffin granule ghosts
Field: numeric (µM). Do not append units.

COC(=O)[C@H]1[C@H]2C[C@@H]3c4[nH]c5cc(OC)ccc5c4CCN3C[C@H]2C[C@@H](OC(=O)c2cc(OC)c(OC)c(OC)c2)[C@@H]1OC :: 0.001
C[n+]1ccc(-c2ccc(C(F)(F)F)cc2)cc1 :: 33.8
Cc1ccccc1-c1cc[n+](C)cc1 :: 95

Query string: Quick one: Ki for `C[n+]1cccc(-c2cccc(O)c2)c1` ?
Result string: 36.6

Query string: Quick one: Ki for `C[N+]1=CC=C(c2ccccc2)CC1` ?
Result string: 53

Query string: Quick one: Ki for `C[n+]1ccc(-c2cccc(O)c2)cc1` ?
Result string: 2.4

Query string: Quick one: Ki for `C[n+]1ccc(-c2cccc(C(F)(F)F)c2)cc1` ?
Result string: 24.6

meta.source: ChEMBL document CHEMBL1143247
